Origin of values: patent US9371374

- target desc: biotinylated HCV core peptide 151-171 (Peptide 3) (HCV-1)
- test method notes: EIA, captured mAb
readout type: log10 of Reactivity (OD492) (log10 of the value in OD)

binder	reported value
HCV 208B-251 (antibody, V domains shown) VH: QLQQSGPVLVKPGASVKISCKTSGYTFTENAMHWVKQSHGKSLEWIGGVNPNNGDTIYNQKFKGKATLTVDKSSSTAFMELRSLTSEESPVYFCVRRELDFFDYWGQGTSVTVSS VL: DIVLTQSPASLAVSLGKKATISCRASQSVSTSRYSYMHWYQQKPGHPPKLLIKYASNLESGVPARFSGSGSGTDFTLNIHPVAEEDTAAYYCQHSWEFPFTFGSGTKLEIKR	-0.39
HCV 208A-352 (antibody, V domains shown) VH: QGQMQQSGAELVKPGASVKLSCKTSGFTFSSSFISWLKQKPGQSLEWIAWIYAGTGNTNYNQKFTDKAQLTVDTSSSTAYMQFSSLTTEDSAIYYCAISGTGFTYWGQGTLVTVSA VL: DVLMAQTPLSLPVTLGDQASISCRSSQSLVHSNGNTYLEWFLQKPGQSPKLLIYNVSNRFSGVPDRFSGSGSGTDFTLKISRVEAEDLGVYYCFQGSHVPLTFGSGTKLEIKR	-1.22
HCV 208A-422 (antibody, V domains shown) VH: DVQLQESGPGLVNPSQSLSLTCSVTGYSITSGYYWIWIQQSPGNKLEWMGYIKYDGGNNYSPSLKNRISIARDTSKNQCFLKLNSVTIEDTATYYCTRGSDSFDYWGQGTTLTVSS VL: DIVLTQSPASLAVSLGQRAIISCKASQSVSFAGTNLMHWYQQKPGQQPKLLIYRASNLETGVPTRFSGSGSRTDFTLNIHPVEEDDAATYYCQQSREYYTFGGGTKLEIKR	-1.00
HCV 208B-281 (antibody, V domains shown) VH: QGQLQQSGAELVKPGASVKLSCKTSGFTFSSSYISWLKQRPGQSLEWIAWIYAGTGGTNYNQKFTDKAQLTVDTSSSTAYMQFSSLTTEDSAIYYCAISGTGFIYWGQGTLVTVSA VL: DVLMTQTPLSLPVSLGDQASISCRSSQSLVHNNGNTYLEWFLQKPGQSPKLLIYKVSNRFSGVPDRFSGSGSGTDFTLKISRVEAEDLGVYYCFQGSHVPFTFGSGTKLEIKR	-0.92
HCV 208B-547 (antibody, V domains shown) VH: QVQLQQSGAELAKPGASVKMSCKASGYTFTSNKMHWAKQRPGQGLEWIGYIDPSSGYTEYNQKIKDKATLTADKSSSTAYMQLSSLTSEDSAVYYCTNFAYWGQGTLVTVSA VL: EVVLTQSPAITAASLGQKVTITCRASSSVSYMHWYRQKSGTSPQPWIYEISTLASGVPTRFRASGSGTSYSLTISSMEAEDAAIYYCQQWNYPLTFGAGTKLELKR	0.46
